Data provenance: patent US20240207458A1

Parameter Kidney/Liver uptake ratio (24 h): see the listing below.
# experimental conditions: 225Ac chelate, non-tumor bearing BALB/c mice

{"columns": ["compound", "Kidney/Liver uptake ratio (24 h)"],
 "data": [
  ["C[C@@H](O)[C@H](NC(=O)[C@@H]1CSSC[C@H](NC(=O)[C@@H](Cc2ccccc2)NC(=O)CCCCCNC(=O)CN2CCN(CC(=O)O)CCN(CC(=O)O)CCN(CC(=O)O)CC2)C(=O)N[C@@H](Cc2ccc(O)cc2)C(=O)N[C@H](Cc2c[nH]c3ccccc23)C(=O)N[C@@H](CCCCN)C(=O)N[C@@H]([C@@H](C)O)C(=O)N1)C(=O)O [Compound 2, DOTA-Ahx-TATE]", 5.3],
  ["C[C@@H](O)[C@H](NC(=O)[C@@H]1CSSC[C@H](NC(=O)[C@@H](Cc2ccccc2)NC(=O)[C@@H](CCCCN)NC(=O)[C@@H](CCCCN)NC(=O)CN2CCN(CC(=O)O)CCN(CC(=O)O)CCN(CC(=O)O)CC2)C(=O)N[C@@H](Cc2ccc(O)cc2)C(=O)N[C@H](Cc2c[nH]c3ccccc23)C(=O)N[C@@H](CCCCN)C(=O)N[C@@H]([C@@H](C)O)C(=O)N1)C(=O)O [Compound 4, DOTA-di-D-Lys-TATE]", 89.6],
  ["C[C@@H](O)[C@H](NC(=O)[C@@H]1CSSC[C@H](NC(=O)[C@@H](Cc2ccccc2)NC(=O)[C@@H](CCC(=O)O)NC(=O)[C@@H](CCC(=O)O)NC(=O)CN2CCN(CC(=O)O)CCN(CC(=O)O)CCN(CC(=O)O)CC2)C(=O)N[C@@H](Cc2ccc(O)cc2)C(=O)N[C@H](Cc2c[nH]c3ccccc23)C(=O)N[C@@H](CCCCN)C(=O)N[C@@H]([C@@H](C)O)C(=O)N1)C(=O)O [Compound 3, DOTA-di-D-Glu-TATE]", 16.5],
  ["C[C@@H](O)[C@H](NC(=O)[C@@H]1CSSC[C@H](NC(=O)[C@@H](Cc2ccccc2)NC(=O)CN2CCN(CC(=O)O)CCN(CC(=O)O)CCN(CC(=O)O)CC2)C(=O)N[C@@H](Cc2ccc(O)cc2)C(=O)N[C@H](Cc2c[nH]c3ccccc23)C(=O)N[C@@H](CCCCN)C(=O)N[C@@H]([C@@H](C)O)C(=O)N1)C(=O)O [Compound 1, DOTA-TATE, reference compound]", 3.6]
]}
